ASSAY METRIC: melting point

>  <MOLECULE>
CCN(CC)C(=O)N1CCC(C(O)(c2ccc(Cl)cc2)c2ccc(Cl)cc2)CC1

>  <melting point>
172 to 175 °C

$$$$
>  <MOLECULE>
CCOC(=O)C1=C(COCC(C)O)NC(C)=C(C(=O)OC)C1c1cccc(Cl)c1Cl (configuration not stated)

>  <melting point>
110 to 113 °C

$$$$
>  <MOLECULE>
CCC(CC)Nc1cc(C)nc2c1nnn2-c1c(C)cc(C)cc1C

>  <melting point>
131 to 133 °C

$$$$

Memo: "CCOP(=O)(/C=C/c1cn(-c2ccccc2)nc1NC)OCC" , reported melting point: 132 to 133 °C

Memo: "Cc1cc(NC(=O)C2(C)CC2)ccc1OC(C)C" , reported melting point: 99 to 101 °C

Memo: "CC(=O)c1ccc(-c2ccc(Br)cc2)c(Br)c1" , reported melting point: 82.5 to 84.5 °C

Memo: "Cc1sc(N2CCOCC2)nc1CCOc1ccc(C[C@H](Nc2ccccc2C(=O)c2ccccc2)C(=O)O)cc1" , reported melting point: 148 to 151 °C

Memo: "O=c1[nH]c2ncc(-c3ccnc(O)c3)nc2n1CC1CCCCC1" , reported melting point: 311 to 313 °C

Memo: "CCCCOCc1cnc2nc(N)[nH]c(=O)c2n1" , reported melting point: > 300 °C

Memo: "N#CCNc1nc(N2CCc3ccccc3CC2)c(C#N)c(=O)[nH]1" , reported melting point: > 200 °C

Memo: "Cc1cnc(C#N)c(Cl)n1" , reported melting point: 63 to 65 °C

Memo: COc1ccc2c3c([nH]c2c1)CC(NC(C)=O)CC3 (configuration not stated) , reported melting point: 192 to 193 °C

Memo: "Cc1cc(O)n2nc(CC(=O)O)nc2n1" , reported melting point: 266 to 270 °C

Memo: "CCN1CCC(CNC(=O)c2cc(Cl)c(N)[nH]c2=O)CC1" , reported melting point: 136 to 140 °C

Memo: "Cc1cnc(CCCCCNc2ncc(Cc3ccc(C)nc3)c(=O)[nH]2)c(N)c1" , reported melting point: 161 to 163 °C

Memo: O=C(O)C1CCc2c(c3ccccc3n2C(=O)C2CCCCC2)C1 (configuration not stated) , reported melting point: 157 to 159 °C

Memo: "CCN(CC)CC(=O)Nc1ccc([N+](=O)[O-])cc1" , reported melting point: 65 to 66 °C

Memo: "CCCCc1cc(NCc2ccc(-c3ccccc3C#N)cc2)n2nccc2n1" , reported melting point: 200 to 202 °C

Memo: "CN(c1cccc2cc(-c3nccs3)[nH]c12)S(=O)(=O)N1CCCC1" , reported melting point: 108 °C

Memo: O=C1CCCC(c2ccc(O)c(O)c2)N1c1ccc(Cl)cc1 (configuration not stated) , reported melting point: 205 to 207 °C

Memo: CC(=O)N1c2ccccc2SC1C#N (configuration not stated) , reported melting point: 92 to 93 °C

Memo: "COc1ccc(C=C(C#N)C(=O)O)cc1OC" , reported melting point: 206 °C

====

ASSAY METRIC: melting point

Below: 8 compounds and their reported melting point.
>  <COMPOUND>
O=C1NCCN1C(=O)N1CCOCC1

>  <RESULT>
158 °C

$$$$
>  <COMPOUND>
CCCCCCC(C)Nc1ccc2c(c1)CCN2c1ncnc2cc(OC)c(OC)cc12 (stereo not given)

>  <RESULT>
61 to 63 °C

$$$$
>  <COMPOUND>
CCOC(=O)C(C)(Cc1ccc([N+](=O)[O-])cc1)C(=O)OCC

>  <RESULT>
59 to 61 °C

$$$$
>  <COMPOUND>
C[C@@H](SN1CCOCC1)[C@](O)(Cn1cncn1)c1ccc(F)cc1F

>  <RESULT>
119 to 121 °C

$$$$
>  <COMPOUND>
CC=C1c2ccccc2CC(=O)c2ccccc21

>  <RESULT>
93 to 95 °C

$$$$
>  <COMPOUND>
Cc1cc(F)c(-n2cnc3ccccc3c2=O)cc1SCC(F)(F)F

>  <RESULT>
145 to 147 °C

$$$$
>  <COMPOUND>
NC(=O)N(O)CC(=O)N(Cc1cccs1)c1ccc(Br)cc1

>  <RESULT>
76 to 79.5 °C

$$$$
>  <COMPOUND>
CCOc1ccc(C(c2ccc(C(C)CC)cc2)C(CC)[N+](=O)[O-])cc1 (stereo not given)

>  <RESULT>
89 to 90 °C

$$$$

Memo: O[C@@H]1C=C[C@H](n2cnc3c(Cl)ncnc32)C1 (racemic) , reported melting point: 118 °C

Memo: "CC(C)(C)c1ccc(CN2C(=O)N(c3ccccc3)CSC2=NCC(F)(F)F)cc1" , reported melting point: 113 to 114 °C
